src = PubChem BioAssay (NCI)

Listed compounds paired with reported TGI
Tested on: CAKI-1 renal
Experiment: NCI tumour cell line growth inhibition, 48 h
measurement kind: TGI (µM)

compound	value unit	result modifier	recorded result
COc1ccc(C2=C3SC=c4ccccc4=C3ON=C2c2ccccc2)cc1	µM	>	100
O=c1c2ncn(C3CCCO3)c2n(-c2ccccc2)c(=S)n1-c1ccccc1 (stereo unspecified)	µM	>	100
CCCCCCCN=C(N)c1ccc(N2CCN(c3ccc(C(N)=NCCCCCCC)cc3)CC2)cc1	µM	=	21.4
CN(C)C(=O)/C=C/c1c[nH]c(=O)[nH]c1=O	µM	>	500
O=C(Nc1ccc([N+](=O)[O-])cc1[N+](=O)[O-])C(=O)C(C(=O)c1ccc2ccccc2c1)C1OC(=O)c2ccccc21 (stereo unspecified)	µM	=	54
CCC(=O)O[C@H]1CC[C@H]2[C@@H]3CCC4=C/C(=N/OC(=O)c5cccc6cc7ccccc7nc56)CC[C@]4(C)[C@H]3CC[C@]12C	µM	>	100
CC(C(=O)O)c1cccc(Oc2ccccc2)c1 (stereo unspecified)	µM	>	100
[N-]=[N+]=N/C1=C/CCCCC(=O)C1	µM	>	100
COC(=O)C1=C(O)c2ccc(Cl)cc2S(=O)(=O)N1C	µM	>	100
COC(C)(C)OCCN1CCN(CCN2C3=C(C=C(C(C)=O)C3)Sc3ccccc32)CC1	µM	=	48.2
CCCC(=O)N1CCN(c2ccc3c(c2)OC(C)O3)CC1 (stereo unspecified)	µM	>	100
CCCCC/C=C1\CCC(CN(C)C)C1=O (stereo unspecified)	µM	=	18.4
Cc1c2cccc-2c(OCCO)cc2c3ccccc3n(C)c12	µM	=	26.6
O=C(O)CCSC(CC1(c2ccc(Cl)cc2)NC(=O)CCS1)c1ccccc1 (stereo unspecified)	µM	=	37.3
C=CCC1(CN(C)C)CC/C(=C\c2ccc(Cl)cc2)C1=O (stereo unspecified)	µM	>	100
C=C(Nc1nc2ccc(C)cc2s1)C(=O)C(CC)C(=O)C(CC)CC1C(=O)NC(=O)NC1=O (stereo unspecified)	µM	>	100
S=c1[nH]c2c(Cl)c(Cl)c(Cl)c(Cl)c2[nH]1	µM	=	64.7
COc1ccc(-c2cc(/C=C/C(=O)c3ccc(OC)c(OC)c3)[nH]n2)cc1	µM	=	3.52
Clc1nc(Cl)nc(Nc2cccc3ccccc23)n1	µM	>	100
C=C1CC/C=C(\C)CCC[C@H](C)[C@@H](O)[C@@H]2OC(=O)C(=C)[C@@H]2C[C@H]1O	µM	=	17
COC12C(COC(N)=O)C3=C(C(=O)C(C)=C(N)C3=O)N1CC1C2N1C (stereo unspecified)	µM	=	22
O=c1[nH]c2ccc(O)cc2o1	µM	>	100
CC1(C)OC[C@@H]([C@H](O)C2C=CC(=O)S2)O1 (stereo partly specified)	µM	=	72.4
CCOC(=O)/C=C(/C(=O)OCC)n1cnc2c(=O)[nH]c(NC(C)=O)nc21	µM	>	100
CC1=C(CO)C2=C(C)C3(CC3)[C@@](C)(O)C(=O)C2=C1	µM	=	0.76
Cn1c(Nc2ccc(C(F)(F)F)cc2)nc2cc(Oc3ccnc(-c4ncc(C(F)(F)F)[nH]4)c3)ccc21	µM	=	15.4
COc1cccc(C2c3cc4c(cc3OC(C)(N3CCCC3)C2C)OCO4)c1 (stereo unspecified)	µM	=	59.8
CC1C=CN(N(C)C)C2=C1C(=O)c1cnccc1C2=O (stereo unspecified)	µM	=	0.597
COc1ccc(C[C@H]2COC(=O)[C@@H]2Cc2cccc(Br)c2)cc1OC	µM	=	30
CN(C)CCNC(=O)c1cccc2ccc(-c3ccc(F)cc3)nc12	µM	=	15.3
COC(=O)C1=CN(CC2=CC(=O)C(C)=CC2=O)C=C(C(=O)OC)C1c1cccc(OC)c1	µM	=	5.61
O=C1NC(N/N=C\C(O)C(O)C(O)C(O)CO)=N/C1=C/c1ccc(Cl)cc1 (stereo unspecified)	µM	>	100
CCOC(=O)c1ccc(N=Nc2cc(C(=O)OCC)ccc2O)cc1	µM	>	100
CCc1ccc(/C=C/c2ccc(O)c3ncccc23)[n+](C)c1	µM	>	100
COc1ccc(OC)c(/C=C(/C#N)c2ccccc2)c1	µM	>	100
C[C@]12CCC(=O)C=C1CC[C@@H]1C2CC[C@]2(C)Nc3[nH]ncc3CC12 (stereo partly specified)	µM	>	100

---

Listed compounds paired with reported TGI
Tested on: A498 renal
Assay: NCI tumour cell line growth inhibition, 48 h
measurement kind: TGI (µM)

compound	system tested	result modifier	recorded result
CSc1ccccc1C#C/C=C\C#Cc1ccccc1N	A498 renal	=	14.5
O=S(=O)(Nc1ccc(Cl)cc1Cl)c1ccc(-c2cnc(C3CC3)o2)cc1	A498 renal	=	0.875
Cn1c2ccccc2c2ncc3[nH]c4ccccc4c3c21	A498 renal	=	36.7
Clc1nc(Cl)nc(Nc2cccc3ccccc23)n1	A498 renal	>	100
Cc1cc(C(F)(F)F)cc(-n2nc(NS(=O)(=O)c3cc(C)c(Cl)cc3S)nc2N)n1	A498 renal	=	56.1
Cn1c2ccccc2c(=O)c2cccc(C(=O)NC(CS)C(=O)O)c21 (stereo unspecified)	A498 renal	>	100

---

Tested on: TK-10 renal
Assay: NCI tumour cell line growth inhibition, 48 h; in the data active means GI50 below about 0.43 µM; inactive means the rest
Possible outcomes: active, inactive

molecule	cat
Nc1c(C(=O)c2ccccc2)cnn1-c1ccc(F)cc1	inactive
Oc1ccc(Nc2c3ccccc3nc3occ(Cl)c23)cc1	inactive
BrCc1cccc(C[P+](c2ccccc2)(c2ccccc2)c2ccccc2)c1	inactive
COC(=O)c1ccc2c(c1)/C(=C\c1cc(Br)c(O)c(Br)c1)C(=O)N2	inactive
COc1cccc2c1C(=O)c1c(O)c3c(c(O)c1C2=O)C[C@@](O)(/C(C)=N/NC(=O)c1ccc(Cl)cc1)C[C@@H]3OC1CC(N)C(O)C(C)O1 (stereo partly drawn)	active
O=C1c2cc3c(cc2-c2c1c1cc(Cl)c(Cl)cc1c(=O)n2C[C@H](O)CO)OCO3	active
Cc1ccc2c(C3C(C#N)=C(N)Oc4cc5ccccc5cc43)cc(=O)oc2c1 (stereo not drawn)	inactive
O=[P@@]1(c2ccccc2)O[C@H](COCc2ccccc2)[C@@H](OCc2ccccc2)[C@H](OCc2ccccc2)[C@H]1NCc1ccccc1	inactive
CCOC(=O)/C=C/c1ccc(C#Cc2ccccc2)cc1	inactive
COc1ccc(C(O)(CCC(C)C)C(CN2CCOCC2)c2ccc(Cl)cc2)cc1 (stereo not drawn)	inactive
CCN(Cc1ccc(F)cc1)c1ccc(CO)c(Br)c1	active
O=C1c2cccc3cccc(c23)C(=O)N1CCCCCN1CCN(CCCCCOc2ccc(-c3nc4ccc(N5CCOCC5)cc4[nH]3)cc2)CC1	inactive
COc1ccccc1Nc1ncc(-c2ccccc2)o1	inactive

---

System: HOP-92 NSCLC
Assay: NCI tumour cell line growth inhibition, 48 h
Listed compounds paired with reported TGI

compound	result modifier	TGI (µM)
COC(=O)C1=C(C(=O)OC)C2=S(SC3=C2CCCC3)S1 (stereo unspecified)	=	40.3
FC(F)(F)c1ccc2c(c1)nc(-c1ccc(Cl)cc1)n2CC1CCCN2CCCCC12 (stereo unspecified)	=	29.1
O=P1(c2ccccc2)Nc2ccccc2SSc2ccccc2N1	=	30.7
COc1ccc(Cn2c(N)c(S(=O)(=O)c3ccc(Cl)cc3)c3nc(C#N)c(C#N)nc32)cc1	>	50
C[Si](C)(C)/C(Br)=C\CCN1C(=O)CCC1=O	>	100
Cn1c2ccccc2c2ncc3[nH]c4ccccc4c3c21	=	56.8
O=[N+]([O-])c1cccc2ccc(N/N=C/c3ccccc3O)nc12	>	100
CCOC(=O)C1SC(=Nc2ccccc2)N=C1C (stereo unspecified)	=	88.8
CC1=C(CO)C2=C(C)C3(CC3)[C@@](C)(O)C(=O)C2=C1	=	0.639
COCOC1C=CCCCC2=CC(C)=C(CC1)O2 (stereo unspecified)	>	100
CCOC(=O)/C=C(/C(=O)OCC)n1cnc2c(=O)[nH]c(NC(C)=O)nc21	>	100
C=C1CC/C=C(\C)CCC[C@H](C)[C@@H](O)[C@@H]2OC(=O)C(=C)[C@@H]2C[C@H]1O	=	7.22
COC(=O)/C=C\C(C#N)(C#N)N=Cc1cc(Br)cs1	=	4.73
COc1cccc2c1C(=O)c1c(O)c3c(c(O)c1C2=O)C[C@@](O)(/C(C)=N/NC(=O)c1ccc(Cl)cc1)C[C@@H]3OC1CC(N)C(O)C(C)O1 (stereo partly specified)	=	0.751
O=C(CSc1c2ccccc2nc2ccccc12)Nc1ccccc1-c1ccccc1NC(=O)CSc1c2ccccc2nc2ccccc12	=	96.1
CC1=C(/C=C/C(C)=C/C=C/C(C)=C/C(=O)OC2CC(n3cc(F)c(=O)[nH]c3=O)OC2CO)C(C)(C)CCC1 (stereo unspecified)	=	36.7
CC(C)[Si]1(C(C)C)OCC2OC3(CO)C(Oc4nc(=O)ccn43)C2O[Si](C(C)C)(C(C)C)O1 (stereo unspecified)	=	32.2
CCOC(=O)/C=C/c1ccc(C#Cc2ccccc2)cc1	>	100
COc1ccc(-c2nsc3c2NC(=O)CC3c2cccc(OC)c2)cc1 (stereo unspecified)	=	43
COc1ccc(-c2nc3ncccn3c2-c2ccc(SC)cc2)cc1	=	70.4
COC(C)(C)OCCN1CCN(CCN2C3=C(C=C(C(C)=O)C3)Sc3ccccc32)CC1	=	92.9
